Cited source: patent US12180193B2

# test_target: BRAF V600E (Homo sapiens, UniProt P15056, V600E)
# Construct: expressed in transfected cells
# Sequence (P15056 whole entry V600E): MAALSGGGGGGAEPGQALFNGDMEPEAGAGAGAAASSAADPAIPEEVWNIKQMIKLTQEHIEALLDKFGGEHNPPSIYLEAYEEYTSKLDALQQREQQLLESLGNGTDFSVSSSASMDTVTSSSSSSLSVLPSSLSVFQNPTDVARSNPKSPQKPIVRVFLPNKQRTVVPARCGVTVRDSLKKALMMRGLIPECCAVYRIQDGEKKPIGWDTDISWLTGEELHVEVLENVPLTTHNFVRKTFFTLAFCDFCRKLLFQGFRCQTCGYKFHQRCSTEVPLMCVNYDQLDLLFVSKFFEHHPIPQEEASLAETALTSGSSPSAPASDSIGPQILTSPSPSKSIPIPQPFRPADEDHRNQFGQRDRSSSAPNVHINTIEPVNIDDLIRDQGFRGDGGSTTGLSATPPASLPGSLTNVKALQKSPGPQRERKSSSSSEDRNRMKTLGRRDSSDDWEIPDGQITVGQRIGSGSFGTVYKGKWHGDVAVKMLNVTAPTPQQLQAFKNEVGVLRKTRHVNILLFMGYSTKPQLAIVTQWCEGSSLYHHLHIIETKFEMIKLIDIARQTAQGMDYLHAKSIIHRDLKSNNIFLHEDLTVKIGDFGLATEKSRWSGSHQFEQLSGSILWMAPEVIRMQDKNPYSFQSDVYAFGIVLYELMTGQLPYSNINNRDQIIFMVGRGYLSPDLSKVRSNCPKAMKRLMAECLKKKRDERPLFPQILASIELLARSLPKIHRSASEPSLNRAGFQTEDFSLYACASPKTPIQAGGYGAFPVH
# test_details: Cellular assay of target protein degradation, T-Rex 293 cells stably transfected with HA-BRAF_V600E (HA immunofluorescence, high content imaging)
# Type: cell-based
# conditions_used: maximum degradation observed, T-Rex 293 HA-BRAF V600E
Measured Dmax values are reported for all entries that follow.

# annotated cases, reported Dmax shown
INSERT INTO assay_data (compound, result) VALUES
  ('C[C@@H]1CC[C@@H](C)N1S(=O)(=O)Nc1ccc(F)c(C(=O)c2c[nH]c3ncc(-c4ccc(N5CCC(CN6CCC(c7ccc8c(c7)CN([C@H]7CCC(=O)NC7=O)C8=O)CC6)CC5)cc4)cc23)c1F', '< 35%'),
  ('O=C1CCC(N2Cc3cc(N4CCC(CN5CC(C6CN(c7ccc(-c8cnc9[nH]cc(C(=O)c%10c(F)ccc(NS(=O)(=O)N%11CC[C@@H](F)C%11)c%10F)c9c8)cc7)C6)C5)CC4)ccc3C2=O)C(=O)N1 (stereo partly drawn)', '35 to 70%'),
  ('O=C1CC[C@H](N2Cc3cc(CN4C[C@@H]5CN(c6ccc(-c7cnc8[nH]cc(C(=O)c9c(F)ccc(NS(=O)(=O)N%10CC[C@@H](F)C%10)c9F)c8c7)cc6)C[C@@H]5C4)ccc3C2=O)C(=O)N1', '35 to 70%'),
  ('O=C1CCC(N2Cc3cc(N4CCC(COCC5CCN(c6ccc(-c7cnc8[nH]cc(C(=O)c9c(F)ccc(NS(=O)(=O)N%10CC[C@@H](F)C%10)c9F)c8c7)cc6)CC5)CC4)ccc3C2=O)C(=O)N1 (stereo partly drawn)', '< 35%'),
  ('O=C1CC[C@H](N2Cc3cc(C[C@H](O)CN4CC5(C4)CN(c4ccc(-c6cnc7[nH]cc(C(=O)c8c(F)ccc(NS(=O)(=O)N9CC[C@@H](F)C9)c8F)c7c6)cc4)C5)ccc3C2=O)C(=O)N1', '35 to 70%');

Data request: Field: Dmax (BRAF V600E (Homo sapiens, UniProt P15056, V600E)). Entry: O=C1CCC(N2Cc3cc(N4CC(CN5CCN(C6(c7ccc(-c8cnc9[nH]cc(C(=O)c%10c(F)ccc(NS(=O)(=O)N%11CC[C@@H](F)C%11)c%10F)c9c8)cc7)CC6)CC5)C4)ccc3C2=O)C(=O)N1 (stereo partly drawn)
Data returned: 35 to 70%

Data request: Field: Dmax (BRAF V600E (Homo sapiens, UniProt P15056, V600E)). Entry: COc1cc(N2CCC(CN3CCC4(CC3)CCN(c3ccc(-c5cnc6[nH]cc(C(=O)c7c(F)ccc(NS(=O)(=O)N8CC[C@@H](F)C8)c7F)c6c5)cc3)CC4)CC2)cc2c1C(=O)N(C1CCC(=O)NC1=O)C2 (stereo partly drawn)
Data returned: 35 to 70%

Data request: Field: Dmax (BRAF V600E (Homo sapiens, UniProt P15056, V600E)). Entry: O=C1CC[C@H](N2Cc3cc(C4CCN(CC5CCN(c6ccc(-c7cnc8[nH]cc(C(=O)c9c(F)ccc(NS(=O)(=O)CCO)c9F)c8c7)cc6)CC5)CC4)ccc3C2=O)C(=O)N1
Data returned: 35 to 70%

Data request: Field: Dmax (BRAF V600E (Homo sapiens, UniProt P15056, V600E)). Entry: CC1(c2ccc(C3CCN(CC4CCN(c5ccc(-c6cnc7[nH]cc(C(=O)c8c(F)ccc(NS(=O)(=O)N9CC[C@@H](F)C9)c8F)c7c6)cc5)CC4)CC3)cc2F)CCC(=O)NC1=O (stereo partly drawn)
Data returned: < 35%

====

# test_target: BRAF V600E (Homo sapiens, UniProt P15056, V600E)
# Construct: expressed in transfected cells
# test_details: Cellular assay of target protein degradation, T-Rex 293 cells stably transfected with HA-BRAF_V600E (HA immunofluorescence, high content imaging)
# Assay type: cell-based
# conditions_used: half maximal degradation, T-Rex 293 HA-BRAF V600E; read-out: BRaf V600E DC50
test_readout: DC50

INSERT INTO assay_data (compound, result) VALUES
  ('O=C1CCC(N2Cc3cc(C4CCN(CC[C@H]5CCN(c6ccc(-c7cnc8[nH]cc(C(=O)c9c(F)ccc(NS(=O)(=O)N%10CC[C@@H](F)C%10)c9F)c8c7)cc6)C5)CC4)ccc3C2=O)C(=O)N1 (stereo partly drawn) [Compound 217]', '5 to 50 nM');

Data request: Which DC50 reading was recorded for the compound CCc1ccc(NS(=O)(=O)N2CC[C@@H](F)C2)c(F)c1C(=O)c1c[nH]c2ncc(-c3ccc(N4CCC(CN5CCC(c6ccc7c(c6)CN([C@H]6CCC(=O)NC6=O)C7=O)CC5)CC4)cc3)cc12 [Compound 265] ?
Data returned: > 500 nM

Data request: Which DC50 reading was recorded for the compound O=C1CCC(N2Cc3cc([C@H](O)CN4CC5(C4)CN(c4ccc(-c6cnc7[nH]cc(C(=O)c8c(F)ccc(NS(=O)(=O)N9CC[C@@H](F)C9)c8F)c7c6)cc4)C5)ccc3C2=O)C(=O)N1 (stereo partly drawn) [Compound 299] ?
Data returned: 5 to 50 nM

Data request: Which DC50 reading was recorded for the compound O=C1CC[C@H](N2Cc3cc(N4CCC(CN5CCN(c6ccc(-c7cnc8[nH]cc(C(=O)c9c(F)ccc(NS(=O)(=O)N%10CC[C@@H](F)C%10)c9F)c8c7)cc6)CC5)CC4)ccc3C2=O)C(=O)N1 [Compound 223] ?
Data returned: 5 to 50 nM

Data request: Which DC50 reading was recorded for the compound CN(C1CC1)S(=O)(=O)Nc1ccc(F)c(C(=O)c2c[nH]c3ncc(-c4ccc(N5CCC(CN6CCC(c7ccc8c(c7)CN([C@H]7CCC(=O)NC7=O)C8=O)CC6)CC5)cc4)cc23)c1F [Compound 281] ?
Data returned: 5 to 50 nM

Data request: Which DC50 reading was recorded for the compound O=C1CCC(N2Cc3cc(N4CCC(CN5CCN(c6ccc(-c7cnc8[nH]cc(C(=O)c9c(F)ccc(NS(=O)(=O)N%10CC[C@@H](F)C%10)c9F)c8c7)cn6)CC5)CC4)ccc3C2=O)C(=O)N1 (stereo partly drawn) [Compound 25] ?
Data returned: 5 to 50 nM

Data request: Which DC50 reading was recorded for the compound O=C1CCC(N2Cc3cc(N4CC5(CCN(CC#Cc6ccc(-c7cnc8[nH]cc(C(=O)c9c(F)ccc(NS(=O)(=O)N%10CC[C@@H](F)C%10)c9F)c8c7)cc6)C5)C4)ccc3C2=O)C(=O)N1 (stereo partly drawn) [Compound 4] ?
Data returned: 50 to 500 nM

Data request: Which DC50 reading was recorded for the compound CCCS(=O)(=O)Nc1ccc(F)c(C(=O)c2c[nH]c3ncc(-c4ccc(N5CCN(CC6CCN(c7ccc8c(c7)CN(C7CCC(=O)NC7=O)C8=O)CC6)CC5)cc4)cc23)c1F (stereo not drawn) [Compound 244] ?
Data returned: 5 to 50 nM

Data request: Which DC50 reading was recorded for the compound O=C1CC[C@H](N2Cc3cc(N4CCN(CC5CCN(c6ccc(-c7cnc8[nH]cc(C(=O)c9c(F)ccc(NS(=O)(=O)N%10CC[C@@H](F)C%10)c9F)c8c7)cc6)CC5)CC4)ccc3C2=O)C(=O)N1 [Compound 219] ?
Data returned: 5 to 50 nM

====

# test_target: BRAF G466V (Homo sapiens, UniProt P15056, G466V)
# Construct: expressed in transfected cells
# Sequence (P15056 whole entry G466V): as the sequence (P15056 whole entry V600E) above, with G466V, E600V counted along it
# test_details: Cellular assay of target protein degradation, T-Rex 293 cells stably transfected with HA-BRAF G466V (HA immunofluorescence, high content imaging)
# Format: cell-based
# conditions_used: maximum degradation observed, T-Rex 293 HA-BRAF G466V
Measured Dmax values are reported for all entries that follow.

INSERT INTO results (molecule, test_readout, result) VALUES
  ('O=C1CCC(N2Cc3cc(N4CCC(CN5CCC6(CCN(c7ccc(-c8cnc9[nH]cc(C(=O)c%10c(F)ccc(NS(=O)(=O)N%11CC[C@@H](F)C%11)c%10F)c9c8)cn7)CC6)C5)CC4)ccc3C2=O)C(=O)N1 (stereo partly drawn)', 'Dmax', '35 to 70%'),
  ('O=C1CC[C@H](NC(=O)c2ccc(N3CCC(CN4CCN(c5ccc(-c6cnc7[nH]cc(C(=O)c8c(F)ccc(NS(=O)(=O)N9CC[C@@H](F)C9)c8F)c7c6)cc5)CC4)CC3)cc2F)C(=O)N1', 'Dmax', '> 70%'),
  ('CCCS(=O)(=O)Nc1ccc(F)c(C(=O)c2c[nH]c3ncc(-c4ccc(N5CCC(CN6CC7(C6)CN(c6ccc8c(c6)CN([C@@H]6CCC(=O)NC6=O)C8=O)C7)CC5)cc4)cc23)c1F', 'Dmax', '> 70%'),
  ('O=C1CCC(N2Cc3cc(CCCCN4CCN(c5ccc(-c6cnc7[nH]cc(C(=O)c8c(F)ccc(NS(=O)(=O)N9CC[C@@H](F)C9)c8F)c7c6)cc5)CC4)ccc3C2=O)C(=O)N1 (stereo partly drawn)', 'Dmax', '> 70%'),
  ('O=C1CC[C@@H](N2Cc3cc([C@H](O)CCN4CCC(c5ccc(-c6cnc7[nH]cc(C(=O)c8c(F)ccc(NS(=O)(=O)N9CC[C@@H](F)C9)c8F)c7c6)cc5)CC4)ccc3C2=O)C(=O)N1', 'Dmax', '> 70%'),
  ('O=C1CCC(NC(=O)c2ccc(N3CCN(CCN4CCN(c5ccc(-c6cnc7[nH]cc(C(=O)c8c(F)ccc(NS(=O)(=O)N9CC[C@@H](F)C9)c8F)c7c6)cc5)CC4)CC3)cc2F)C(=O)N1 (stereo partly drawn)', 'Dmax', '< 35%'),
  ('O=C1CCC(N2Cc3cc(OC4CC5(C4)CN(c4ccc(-c6cnc7[nH]cc(C(=O)c8c(F)ccc(NS(=O)(=O)N9CC[C@@H](F)C9)c8F)c7c6)cc4)C5)ccc3C2=O)C(=O)N1 (stereo partly drawn)', 'Dmax', '35 to 70%'),
  ('O=C1CCC(NC(=O)c2ccc(C3CCN(CC4CCN(c5ncc(-c6cnc7[nH]cc(C(=O)c8c(F)ccc(NS(=O)(=O)N9CC[C@@H](F)C9)c8F)c7c6)cn5)CC4)CC3)cc2F)C(=O)N1 (stereo partly drawn)', 'Dmax', '35 to 70%');

We now examine a further molecule.
Data request: Which Dmax reading was recorded for the molecule CN(CC1CCN(c2ccc3c(c2)CN(C2CCC(=O)NC2=O)C3=O)CC1)[C@H]1C[C@@H](Oc2ccc(-c3cnc4[nH]cc(C(=O)c5c(F)ccc(NS(=O)(=O)N6CC[C@@H](F)C6)c5F)c4c3)cc2)C1 (stereo partly drawn) ?
Data returned: 35 to 70%
